Assay: Pharmacokinetic (PK) study, oral gavage, plasma LC-MS/MS
Conditions: female, Sprague Dawley, rat, po, 10 mg/kg, AUC0−t, female Sprague Dawley rats, oral gavage 10 mg/kg, Capryol 90/Triacetin (1:1, v/v)
endpoint label: AUC(0-t) (ng·h/mL)

>>> measured("CCC[C@@H](N(NC(=O)c1ccc(B(O)O)c(F)c1)C(=O)c1cc(C)cc(C)c1)C(C)(C)C")
25000
>>> measured("CCC[C@@H](N(NC(=O)c1cccc(OC)c1CC)C(=O)c1cc(C)cc(C)c1)C(C)(C)C [Cpd. B, reference compound]")
888
>>> measured("Cc1cc(C)cc(C(=O)N(NC(=O)c2ccc3c(c2F)B(O)OC3)C(C)(C)C)c1")
30800
>>> measured("CCC[C@@H](N(NC(=O)c1cccc(OC)c1C)C(=O)c1cc(C)cc(C)c1)C(C)(C)C [Cpd. A, reference compound]")
773
>>> measured("Cc1cc(C)cc(C(=O)N(NC(=O)c2cccc(B(O)O)c2F)C(C)(C)C)c1")
18800
>>> measured("CC[C@@H](N(NC(=O)c1ccc2c(c1F)COB2O)C(=O)c1cc(C)cc(C)c1)C(C)(C)C")
24500
